All figures here come from ChEMBL document CHEMBL1130574.

Can you tell me log10 Ki for the items I'm about to list?
STUDY_SYSTEM: D(2) dopamine receptor (Rattus norvegicus)
Sequence (P61169 whole entry): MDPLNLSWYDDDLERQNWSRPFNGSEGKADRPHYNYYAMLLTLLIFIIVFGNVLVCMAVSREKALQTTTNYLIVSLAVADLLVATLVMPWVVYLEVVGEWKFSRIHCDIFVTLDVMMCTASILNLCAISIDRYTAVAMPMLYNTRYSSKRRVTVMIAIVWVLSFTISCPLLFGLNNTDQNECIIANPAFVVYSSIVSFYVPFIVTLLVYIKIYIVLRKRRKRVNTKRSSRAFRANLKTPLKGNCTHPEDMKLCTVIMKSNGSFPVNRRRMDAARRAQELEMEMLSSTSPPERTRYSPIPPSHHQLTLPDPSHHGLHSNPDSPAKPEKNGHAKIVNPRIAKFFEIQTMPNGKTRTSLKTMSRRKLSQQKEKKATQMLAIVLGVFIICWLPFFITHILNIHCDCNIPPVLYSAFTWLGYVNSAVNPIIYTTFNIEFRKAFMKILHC
TEST: Binding affinity against D2 receptor in rat striatum using [3H]raclopride
The figures below represent log10 of Ki, where Ki is stated in nM.

COc1ccccc1N1CCN(CCCCc2ccc3c(c2)OCC(=O)N3CCN2CCC(C(=O)c3ccc(F)cc3)CC2)CC1 | -1.22
O=C(c1ccc(F)cc1)C1CCN(CCn2c(=O)sc3cc(CCCCN4CCOCC4)ccc32)CC1 | 2.00

For each of the compounds below, state log10 Ki.
1. COc1ccccc1N1CCN(CCCCc2ccc3c(c2)OCC(=O)N3CCN2CCC(=C(c3ccc(F)cc3)c3ccc(F)cc3)CC2)CC1
2. COc1ccccc1N1CCN(CCCCc2ccc3c(c2)sc(=O)n3CCN2CCC(C(=O)c3ccc(F)cc3)CC2)CC1
3. COc1ccccc1N1CCN(CCCCc2ccc3c(c2)oc(=O)n3CCN2CCC(C(=O)c3ccc(F)cc3)CC2)CC1
4. COc1ccccc1N1CCN(CCCCc2ccc3c(c2)oc(=O)n3CCN2CCC(=C(c3ccc(F)cc3)c3ccc(F)cc3)CC2)CC1
5. COc1ccccc1N1CCN(CCCCc2ccc3c(c2)sc(=O)n3CCN2CCC(=C(c3ccc(F)cc3)c3ccc(F)cc3)CC2)CC1
6. O=C(c1ccc(F)cc1)C1CCN(CCn2c(=O)sc3cc(CCCCN4CCN(c5cccc(C(F)(F)F)c5)CC4)ccc32)CC1
7. COc1ccccc1N1CCN(CCc2ccc3c(c2)sc(=O)n3CCN2CCC(C(=O)c3ccc(F)cc3)CC2)CC1

Data returned:
0.15
0.08
-0.30
0.48
0.70
1.48
0.70

Data request: What does the record list as log10 Ki for `COc1ccccc1N1CCN(CCCc2ccc3c(c2)sc(=O)n3CCN2CCC(C(=O)c3ccc(F)cc3)CC2)CC1` ?
Data returned: 0.30

###

Parameter 'readout' = pKi; parameter 'system' = 5-hydroxytryptamine receptor 2A (Rattus norvegicus).
Sequence (P14842 whole entry): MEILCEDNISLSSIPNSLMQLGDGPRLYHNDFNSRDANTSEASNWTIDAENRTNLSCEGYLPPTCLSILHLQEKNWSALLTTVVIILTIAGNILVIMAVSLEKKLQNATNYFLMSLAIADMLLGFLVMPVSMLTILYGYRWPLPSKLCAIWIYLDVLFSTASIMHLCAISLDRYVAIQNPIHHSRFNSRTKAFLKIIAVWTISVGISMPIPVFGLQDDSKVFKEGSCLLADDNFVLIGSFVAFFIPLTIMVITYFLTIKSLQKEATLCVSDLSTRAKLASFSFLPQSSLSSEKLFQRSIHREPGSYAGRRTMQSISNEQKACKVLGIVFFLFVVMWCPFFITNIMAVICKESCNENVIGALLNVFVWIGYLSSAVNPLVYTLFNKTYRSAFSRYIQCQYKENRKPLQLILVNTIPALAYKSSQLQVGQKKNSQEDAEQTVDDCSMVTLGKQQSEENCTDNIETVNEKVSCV
One number for each entry, as −log10 of the molar value.

O=C(c1ccc(F)cc1)C1CCN(CCn2c(=O)sc3cc(CCCCN4CCN(c5cccc(C(F)(F)F)c5)CC4)ccc32)CC1 | 7.30
COc1ccccc1N1CCN(CCCCc2ccc3c(c2)oc(=O)n3CCN2CCC(C(=O)c3ccc(F)cc3)CC2)CC1 | 7.80

Attention now turns to another entry.
Data request: Please state recorded pKi (tested on 5-hydroxytryptamine receptor 2A (Rattus norvegicus)) of `COc1ccccc1N1CCN(CCCc2ccc3c(c2)sc(=O)n3CCN2CCC(C(=O)c3ccc(F)cc3)CC2)CC1`
Data returned: 8.70
